Could you please report measured bioavailability for the items listed next?
- test method notes: Oral bioavailability in Sprague-Dawley rat at 2 mg/kg administered as single dose via gavage by LC-MS/MS analysis
- Type: ADME, organism-based
- run conditions: in vivo
Please state the figure in %; there is no need to write the unit.

Need bioavailability, item `Cl.N[C@@H]1CCC=C(c2ccc(F)cc2)[C@H]1CNc1cc(F)c(S(=O)(=O)Nc2nccs2)cc1Cl`
3

Need bioavailability, item `Cl.N[C@@H]1CCC=C(c2ccc(F)cc2)[C@H]1CSc1cc(F)c(S(=O)(=O)Nc2nccs2)cc1Cl`
14

Need bioavailability, item `Cl.N[C@@H]1CCC=C(c2ccc(F)cc2)[C@H]1CSc1cc(F)c(S(=O)(=O)Nc2cscn2)cc1Cl`
27

Need bioavailability, item `CCN[C@@H]1CCC=C(c2ccc(F)cc2)[C@H]1CNc1cc(F)c(S(=O)(=O)Nc2nccs2)cc1Cl.Cl`
14

---

- test method notes: Ratio of total drug level in iv dosed rat brain to plasma measured 2 hrs post dose
- Format: ADME, organism-based
- run conditions: read-out: BPR
recorded endpoint: Kp at 2 h
No unit in the answer, please; the number alone is enough.

Need Kp at 2 h, item `N[C@@H]1CCC=C(c2ccc(F)cc2)[C@H]1COc1cc(F)c(S(=O)(=O)Nc2cscn2)cc1Cl`
0.13

Need Kp at 2 h, item CN(C)[C@@H]1CCC=C(c2ccc(F)cc2)[C@H]1COc1cc(F)c(S(=O)(=O)Nc2cscn2)cc1Cl.Cl (racemic)
0.6

Need Kp at 2 h, item CC(C)N[C@@H]1CCC=C(c2ccc(F)cc2)[C@H]1COc1cc(F)c(S(=O)(=O)Nc2cscn2)cc1Cl.Cl (racemic)
0.08

Need Kp at 2 h, item CCN[C@@H]1CCC=C(c2ccc(F)cc2)[C@H]1COc1cc(F)c(S(=O)(=O)Nc2cscn2)cc1Cl.Cl (racemic)
0.08

Need Kp at 2 h, item CN[C@@H]1CCC=C(c2ccc(F)cc2)[C@H]1COc1cc(F)c(S(=O)(=O)Nc2cscn2)cc1Cl.Cl (racemic)
0.04

---

Could you please report measured concentration at 1 h for the items listed next?
- test method notes: Plasma concentration in Sprague-Dawley rat spinal nerve ligation model at 100 mg/kg administered as single dose via oral gavage measured after 1 hr by LC-MS/MS analysis
- Format: ADME, organism-based
Please state the figure in µM; there is no need to write the unit.

Need concentration at 1 h, item `Cl.N[C@@H]1CCC=C(c2ccc(F)cc2)[C@H]1CNc1cc(F)c(S(=O)(=O)Nc2cscn2)cc1Cl`
3.74

Need concentration at 1 h, item `CCN[C@@H]1CCC=C(c2ccc(F)cc2)[C@H]1COc1cc(F)c(S(=O)(=O)Nc2cscn2)cc1Cl.Cl`
8.48

---

Could you please report measured concentration at 2 h for the items listed next?
- test method notes: Plasma concentration in Sprague-Dawley rat spinal nerve ligation model at 100 mg/kg administered as single dose via oral gavage measured after 2 hrs by LC-MS/MS analysis
- Assay type: ADME, organism-based
Please state the figure in µM; there is no need to write the unit.

Need concentration at 2 h, item `CCN[C@@H]1CCC=C(c2ccc(F)cc2)[C@H]1COc1cc(F)c(S(=O)(=O)Nc2cscn2)cc1Cl.Cl`
7.5

Need concentration at 2 h, item `Cl.N[C@@H]1CCC=C(c2ccc(F)cc2)[C@H]1CNc1cc(F)c(S(=O)(=O)Nc2cscn2)cc1Cl`
3.82

---

- test method notes: Dissociation constant, pKa of the compound
- Type: physicochemical
Could you please report measured pKa for the items listed next?

Need pKa, item `Cl.N[C@@H]1CCC=C(c2ccc(F)cc2)[C@H]1CNc1cc(F)c(S(=O)(=O)Nc2cscn2)cc1Cl`
7.09 to 9.18

Need pKa, item `N[C@@H]1CCC=C(c2ccc(F)cc2)[C@H]1COc1cc(F)c(S(=O)(=O)Nc2cscn2)cc1Cl`
6.13 to 9.05

Need pKa, item `CCN[C@@H]1CCC=C(c2ccc(F)cc2)[C@H]1COc1cc(F)c(S(=O)(=O)Nc2cscn2)cc1Cl.Cl`
6.34 to 9.35

---

- test method notes: Metabolic stability in rat liver microsomes assessed as parent compound remaining at 10 uM measured up to 60 mins in presence of NADPH by LC-MS analysis
- Type: ADME, microsome
- run conditions: read-out: Stability
recorded endpoint: remaining at 1 h, 10 µM (%)
Please state the figure in %; there is no need to write the unit.

Need remaining at 1 h, 10 µM, item `CCN[C@@H]1CCC=C(c2ccc(F)cc2)[C@H]1COc1cc(F)c(S(=O)(=O)Nc2cscn2)cc1Cl.Cl`
49.7

---

- test method notes: Volume of distribution at steady state in Sprague-Dawley rat administered as single iv bolus by LC-MS/MS analysis
- Assay type: ADME, organism-based
- run conditions: in vivo, read-out: Vdss
Could you please report measured Vd for the items listed next?
Please state the figure in L/kg; there is no need to write the unit.

Need Vd, item `Cl.N[C@@H]1CCC=C(c2ccc(F)cc2)[C@H]1CNc1cc(F)c(S(=O)(=O)Nc2cscn2)cc1Cl`
5.77

Need Vd, item `Cl.N[C@@H]1CCC=C(c2ccc(F)cc2)[C@H]1CSc1cc(F)c(S(=O)(=O)Nc2nccs2)cc1Cl`
6.05

Need Vd, item CCN[C@@H]1CCC=C(c2ccc(F)cc2)[C@H]1COc1cc(F)c(S(=O)(=O)Nc2nccs2)cc1Cl.Cl (racemic)
6.21

Need Vd, item `Cl.N[C@@H]1CCC=C(c2ccc(F)cc2)[C@H]1CNc1cc(F)c(S(=O)(=O)Nc2nccs2)cc1Cl`
4.24

---

- test method notes: AUC (0 to last) in Sprague-Dawley rat at 10 mg/kg administered as single dose via oral gavage by LC-MS/MS analysis
- Assay type: ADME, organism-based
- Set-up: dose 10 mg/kg, route oral, time 0 - last
- run conditions: in vivo
recorded endpoint: AUC(0-t) (µM·h)
Please state the figure in µM·h; there is no need to write the unit.

Need AUC(0-t), item `Cl.N[C@@H]1CCC=C(c2ccc(F)cc2)[C@H]1CNc1cc(F)c(S(=O)(=O)Nc2cscn2)cc1Cl`
4.86

Need AUC(0-t), item `CCN[C@@H]1CCC=C(c2ccc(F)cc2)[C@H]1COc1cc(F)c(S(=O)(=O)Nc2cscn2)cc1Cl.Cl`
3.04

---

- test method notes: Plasma concentration in Sprague-Dawley rat spinal nerve ligation model at 30 mg/kg administered as single dose via oral gavage measured after 2 hrs by LC-MS/MS analysis
- Assay type: ADME, organism-based
recorded endpoint: concentration at 2 h (µM)
Please state the figure in µM; there is no need to write the unit.

Need concentration at 2 h, item `CCN[C@@H]1CCC=C(c2ccc(F)cc2)[C@H]1COc1cc(F)c(S(=O)(=O)Nc2cscn2)cc1Cl.Cl`
2.16

---

- test method notes: physchem
- run conditions: buffer, pH 7.4
recorded endpoint: solubility thermodynamic (µM)
Please state the figure in µM; there is no need to write the unit.

Need solubility thermodynamic, item `CCN[C@@H]1CCC=C(c2ccc(F)cc2)[C@H]1COc1cc(F)c(S(=O)(=O)Nc2cscn2)cc1Cl.Cl`
26.5

Need solubility thermodynamic, item `Cl.N[C@@H]1CCC=C(c2ccc(F)cc2)[C@H]1CNc1cc(F)c(S(=O)(=O)Nc2cscn2)cc1Cl`
135

---

- test method notes: in vitro
- run conditions: human, Caco-2
y if Papp A→B at 2 h, 2 µM is below 0.4 ×10⁻⁶ cm/s. n if not; exact matches included in n.

Given `Cl.N[C@@H]1CCC=C(c2ccc(F)cc2)[C@H]1CNc1cc(F)c(S(=O)(=O)Nc2cscn2)cc1Cl` , is recorded Papp A→B at 2 h, 2 µM strictly lower than 0.4 ×10⁻⁶ cm/s?
y

Given CN(C)[C@@H]1CCC=C(c2ccc(F)cc2)[C@H]1COc1cc(F)c(S(=O)(=O)Nc2cscn2)cc1Cl.Cl (racemic) , is recorded Papp A→B at 2 h, 2 µM strictly lower than 0.4 ×10⁻⁶ cm/s?
n

Given CN[C@@H]1CCC=C(c2ccc(F)cc2)[C@H]1COc1cc(F)c(S(=O)(=O)Nc2cscn2)cc1Cl.Cl (racemic) , is recorded Papp A→B at 2 h, 2 µM strictly lower than 0.4 ×10⁻⁶ cm/s?
y

Given CC(C)N[C@@H]1CCC=C(c2ccc(F)cc2)[C@H]1COc1cc(F)c(S(=O)(=O)Nc2cscn2)cc1Cl.Cl (racemic) , is recorded Papp A→B at 2 h, 2 µM strictly lower than 0.4 ×10⁻⁶ cm/s?
n

---

- test method notes: Volume of distribution at steady state in Sprague-Dawley rat administered as single iv bolus by LC-MS/MS analysis
- Type: ADME, organism-based
- run conditions: in vivo, read-out: Vdss
# Vd >= 5 L/kg gives satisfied, anything below gives not satisfied

Does the reported Vd for `Cl.N[C@@H]1CCC=C(c2ccc(F)cc2)[C@H]1CSc1cc(F)c(S(=O)(=O)Nc2cscn2)cc1Cl` fall at or above the 5 L/kg mark?
not satisfied

Does the reported Vd for `CCN[C@@H]1CCC=C(c2ccc(F)cc2)[C@H]1COc1cc(F)c(S(=O)(=O)Nc2cscn2)cc1Cl.Cl` fall at or above the 5 L/kg mark?
not satisfied

Does the reported Vd for Cl.N[C@@H]1CCC=C(c2ccc(F)cc2)[C@H]1COc1cc(F)c(S(=O)(=O)Nc2nccs2)cc1Cl (racemic) fall at or above the 5 L/kg mark?
not satisfied

Does the reported Vd for `CCN[C@@H]1CCC=C(c2ccc(F)cc2)[C@H]1CNc1cc(F)c(S(=O)(=O)Nc2nccs2)cc1Cl.Cl` fall at or above the 5 L/kg mark?
not satisfied

Does the reported Vd for `N[C@@H]1CCC=C(c2ccc(F)cc2)[C@H]1COc1cc(F)c(S(=O)(=O)Nc2cscn2)cc1Cl` fall at or above the 5 L/kg mark?
satisfied
